Assay: Biodistribution of 177Lu-labeled αMSH analogues in mice bearing B16F10 mouse melanoma
Type: in vivo, C57BL/6J mice
Conditions: mouse, bone, iv, total radioactivity; 120 h p.i., C57BL/6J mice, B16F10 melanoma; read-out: Biodistribution, Bone
metric: tissue uptake at 120 h (%ID/g)
Give bare numbers, in %ID/g.

Some solved entries appear below for comparison.
>  <molecule>
CCCC[C@H](NC(=O)CN1CCC(NC(=O)[C@H](CCCCNC(=O)CN2CCN(CC(=O)O)CCN(CC(=O)O)CCN(CC(=O)O)CC2)NC(=O)[C@H](CCC(=O)O)NC(=O)CCCc2ccc(I)cc2)CC1)C(=O)N[C@H]1CC(=O)NCCCC[C@@H](C(N)=O)N(C)C(=O)[C@H](Cc2c[nH]c3ccccc23)N(C)C(=O)[C@H](CCCNC(=N)N)N(C)C(=O)[C@@H](Cc2ccccc2)NC(=O)[C@H](Cc2c[nH]cn2)N(C)C1=O [^177Lu-labeled CCZ01088, metal not drawn]

>  <tissue uptake at 120 h (%ID/g)>
0.13

$$$$
>  <molecule>
CCCC[C@H](NC(=O)CN1CCC(NC(=O)CN2CCN(CC(=O)O)CCN(CC(=O)O)CCN(CC(=O)O)CC2)CC1)C(=O)N[C@H]1CC(=O)NCCCC[C@@H](C(N)=O)N(C)C(=O)[C@H](Cc2c[nH]c3ccccc23)N(C)C(=O)[C@H](CCCNC(=N)N)N(C)C(=O)[C@@H](Cc2ccccc2)NC(=O)[C@H](Cc2c[nH]cn2)N(C)C1=O [^177Lu-labeled CCZ01099, metal not drawn]

>  <tissue uptake at 120 h (%ID/g)>
0.02

$$$$

Below are 3 molecules. Give each one its tissue uptake at 120 h.
1. CCCC[C@H](NC(=O)CN1CCC(NC(=O)CN2CCN(CC(=O)O)CCN(CC(=O)O)CCN(CC(=O)O)CC2)CC1)C(=O)N[C@H]1CC(=O)NCCCC[C@@H](C(N)=O)N(C)C(=O)[C@H](Cc2c[nH]c3ccccc23)NC(=O)[C@H](CCCNC(=N)N)N(C)C(=O)[C@@H](Cc2ccccc2)NC(=O)[C@H](Cc2c[nH]cn2)NC1=O [^177Lu-labeled CCZ01106, metal not drawn]
2. CCCC[C@H](NC(=O)CN1CCC(NC(=O)[C@H](CCCCNC(=O)CN2CCN(CC(=O)O)CCN(CC(=O)O)CCN(CC(=O)O)CC2)NC(=O)[C@H](CCC(=O)O)NC(=O)CCCc2ccc(I)cc2)CC1)C(=O)N[C@H]1CC(=O)NCCCC[C@@H](C(N)=O)NC(=O)[C@H](Cc2c[nH]c3ccccc23)NC(=O)[C@H](CCCNC(=N)N)NC(=O)[C@@H](Cc2ccccc2)NC(=O)[C@H](Cc2c[nH]cn2)NC1=O [^177Lu-labeled CCZ01082, metal not drawn]
3. CCCC[C@H](NC(=O)CN1CCC(NC(=O)[C@H](CCCCNC(=O)CN2CCN(CC(=O)O)CCN(CC(=O)O)CCN(CC(=O)O)CC2)NC(=O)[C@H](CCC(=O)O)NC(=O)CCCc2ccc(I)cc2)CC1)C(=O)N[C@H]1CC(=O)NCCCC[C@@H](C(N)=O)N(C)C(=O)[C@H](Cc2c[nH]c3ccccc23)NC(=O)[C@H](CCCNC(=N)N)N(C)C(=O)[C@@H](Cc2ccccc2)NC(=O)[C@H](Cc2c[nH]cn2)NC1=O [^177Lu-labeled CCZ01118, metal not drawn]

Reply text:
[0.04, 0.17, 0.12]

Every entry's value here was drawn from patent US11395857B2.
